Taken from patent US20160002174A1.

endpoint name: melting point

molecule smiles | obs value
N=C(N)NCc1ccc(CNC(=N)N)cc1 | 278 to 281 °C (dec.)
c1ccc(NCCNCc2ccc(CNCCNc3ccccc3)cc2)cc1 | 42 to 43 °C
O=C(Nc1ccccc1)c1cc(C(=O)Nc2ccccc2)cc(C(=O)Nc2ccccc2)c1 | 318 to 320 °C
c1ccc(NCc2ccc(CNc3ccccc3)cc2)cc1 | 126 to 127 °C

----------
Item-by-item account of IC50
- system under test: CXCR4 (Homo sapiens)
- Sequence (P61073 whole entry): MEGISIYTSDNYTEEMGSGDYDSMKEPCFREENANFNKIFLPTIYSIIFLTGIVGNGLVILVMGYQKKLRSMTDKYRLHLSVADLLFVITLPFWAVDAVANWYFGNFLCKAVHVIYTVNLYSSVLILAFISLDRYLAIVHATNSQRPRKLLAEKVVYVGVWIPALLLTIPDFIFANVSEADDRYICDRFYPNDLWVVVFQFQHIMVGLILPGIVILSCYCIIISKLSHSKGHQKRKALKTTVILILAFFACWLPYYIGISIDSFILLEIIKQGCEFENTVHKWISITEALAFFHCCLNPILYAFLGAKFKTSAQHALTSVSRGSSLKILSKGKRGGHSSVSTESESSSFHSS
- assay protocol: Competition assays: test compounds binding to CXCR4 compared to SDF-1 (Table 2)
- protocol conditions: competition with SDF-1 for binding to CXCR4; read-out: IC50 (nM) vs SDF-1

molecule smiles | system under test | IC50
c1ccc(NCc2cc(CNc3ccccc3)cc(CNc3ccccc3)c2)cc1 | CXCR4 (Homo sapiens) | > 1000 nM
CN(C)Cc1ccc(CN(C)C)cc1 | CXCR4 (Homo sapiens) | > 1000 nM
O=C(Nc1ccccc1)c1cc(CNc2ccccc2)cc(CNc2ccccc2)c1 | CXCR4 (Homo sapiens) | > 100 nM
Oc1cc(CN2CCOCC2)c(O)cc1CN1CCOCC1 | CXCR4 (Homo sapiens) | > 1000 nM
[O-][n+]1cccnc1NCc1ccc(CNc2nccc[n+]2[O-])cc1 | CXCR4 (Homo sapiens) | > 1000 nM
c1ccc(NCCNCc2ccc(CNCCNc3ccccc3)cc2)cc1 | CXCR4 (Homo sapiens) | > 1000 nM
Fc1nccc(NCc2ccc(CNc3ccnc(F)n3)cc2)n1 | CXCR4 (Homo sapiens) | 1 nM
O=[N+]([O-])c1ccccc1NCc1ccc(CO)cc1 | CXCR4 (Homo sapiens) | 1 nM
Fc1ccc(NCc2ccc(CNc3ccc(F)cc3)cc2)cc1 | CXCR4 (Homo sapiens) | > 1000 nM
c1ccc(NCCc2ccc(CCNc3ccccc3)cc2)cc1 | CXCR4 (Homo sapiens) | > 100 nM

----------
- system under test: UniProt:P61073
- assay protocol: Competition assays: test compounds binding to CXCR4 compared to SDF-1 (Table 2)
- protocol conditions: competition with SDF-1 for binding to CXCR4; read-out: IC50 (nM) vs SDF-1

compound | IC50
c1cc(CNC2=NCCN2)ccc1CNC1=NCCN1 | > 1000 nM
Fc1ccc(NCc2ccc(CNc3ccc(F)cn3)cc2)nc1 | < 100 nM
Fc1cnc(NCc2ccc(CNc3ncc(F)c(Cl)n3)cc2)nc1Cl | 1 nM
FCc1ccc(CNc2ncccn2)cc1 | 1 nM
N#Cc1ccc(NCc2ccc(CNc3ccc(C#N)cc3)cc2)cc1 | > 1000 nM
COc1nc(NCc2ccc(CNc3ncc(F)c(OC)n3)cc2)ncc1F | 1 nM
Fc1cccc(NCc2ccc(CNc3cccc(F)c3)cc2)c1 | > 100 nM
Cc1cc(CN)c(C)cc1CN | > 1000 nM
c1ccc(NCc2ccccc2CNc2ccccc2)cc1 | > 100 nM
FC(F)(F)c1cccc(NCc2ccc(CNc3cccc(C(F)(F)F)c3)cc2)c1 | > 1000 nM
CN(Cc1ccc(CN(C)c2ccccc2)cc1)c1ccccc1 | > 100 nM
c1ccc(NCc2c3ccccc3c(CNc3ccccc3)c3ccccc23)cc1 | > 100 nM
Fc1ccc(NCc2ccc(CNc3ncccn3)cc2)nc1 | 1 nM
c1ccc(NCc2ccc(CNc3ncccn3)cc2)nc1 | < 100 nM
COc1cccc(NC(=O)c2ccc(C(=O)Nc3cccc(OC)c3)cc2)c1 | > 1000 nM
c1ccc(OCc2ccc(COc3ccccn3)cc2)nc1 | > 1000 nM
c1cncc(CNCc2ccc(CNCc3cccnc3)cc2)c1 | > 1000 nM
COc1ccc(NCc2ccc(CNc3ccc(OC)cc3)cc2)cc1 | > 10 nM
CN(C)CCNCc1ccc(CNCCN(C)C)cc1 [MSX-156s] | > 1000 nM
c1ccc(NC[C@H]2CC[C@@H](CNc3ccccc3)CC2)cc1 | > 1000 nM
